- Target or system: Human serum albumin (HSA) (Homo sapiens)
- Construct: I (residues 1–195), II (196–383), III (384–585)
- Sequence (P02768 25-609): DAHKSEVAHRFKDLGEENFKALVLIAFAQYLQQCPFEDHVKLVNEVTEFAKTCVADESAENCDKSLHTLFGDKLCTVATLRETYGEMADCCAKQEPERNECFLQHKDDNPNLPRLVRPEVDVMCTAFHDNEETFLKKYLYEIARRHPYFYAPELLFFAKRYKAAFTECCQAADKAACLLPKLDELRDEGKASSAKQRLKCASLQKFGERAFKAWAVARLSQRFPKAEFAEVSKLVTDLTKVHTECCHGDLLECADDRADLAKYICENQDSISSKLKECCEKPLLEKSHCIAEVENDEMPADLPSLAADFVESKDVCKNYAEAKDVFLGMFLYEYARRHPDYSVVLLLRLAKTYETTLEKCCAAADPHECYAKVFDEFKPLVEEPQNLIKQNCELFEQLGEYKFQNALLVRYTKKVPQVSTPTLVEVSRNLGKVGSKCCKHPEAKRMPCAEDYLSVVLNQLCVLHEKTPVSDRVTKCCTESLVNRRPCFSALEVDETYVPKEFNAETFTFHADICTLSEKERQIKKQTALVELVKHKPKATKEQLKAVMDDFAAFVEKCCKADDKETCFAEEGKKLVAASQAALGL
- Protocol details: Esterase-like activity of HSA toward p-NPA in presence of HA
- Test parameters: competitive, substrate p-NPA, 25 °C; read-out: K i (inhibitor constant) for esterase-like activity of HSA
Reported property: Ki (µM)
Your answer is read as µM, so omit the unit and give the number.

Consider the compound O=C(O)CNC(=O)c1ccccc1 and give its measured Ki. 21.7
